I'd appreciate it if you could supply growth inhibition by drug plus 177Lu-lilotomab satetraxetan values for the items below.
System: RIVA
Test description: growth inhibition by drug plus 177Lu-lilotomab satetraxetan (1 - RLU/untreated control) (fraction); higher = stronger inhibition
Condition parameters: 10 nM; time (day): 5; 177Lu-lilotomab satetraxetan 0.5 ug/ml
Lab note: jot the number down without any unit.

Notebook: `CN(c1ncccc1CNc1nc(Nc2ccc3c(c2)CC(=O)N3)ncc1C(F)(F)F)S(C)(=O)=O` , growth inhibition by drug plus 177Lu-lilotomab satetraxetan read as 0.671

Notebook: `CC(C)C[C@H](NC(=O)[C@@H](O)[C@H](N)Cc1ccccc1)C(=O)O` , growth inhibition by drug plus 177Lu-lilotomab satetraxetan read as 0.552

Notebook: `CC(C)Oc1cc(Nc2nc(N[C@@H](C)c3ccc(F)cn3)ncc2Cl)n[nH]1` , growth inhibition by drug plus 177Lu-lilotomab satetraxetan read as 0.679

Notebook: Cn1nnc2c(C(N)=O)ncn2c1=O [Temozolomide] , growth inhibition by drug plus 177Lu-lilotomab satetraxetan read as 0.538

Notebook: `CN(C)CCCCSC(=N)N` , growth inhibition by drug plus 177Lu-lilotomab satetraxetan read as 0.532

Notebook: COc1nc(C)cnc1NS(=O)(=O)c1cccnc1-c1ccc(-c2nnco2)cc1 [Zibotentan (ZD4054)] , growth inhibition by drug plus 177Lu-lilotomab satetraxetan read as 0.537
